test system: THP-1; test: Anti-inflammatory activity in Homo sapiens (human) THP1 cells assessed as inhibition of LPS-induced IL-6 production preincubated at 10 uM for 30 min before LPS treatment measured after 24 hr by ELISA; type: functional
Kindly supply the reported inhibition at 10 µM values for the records listed here.
Write your answer as a measured quantity: the number, then the unit.

Value sought for every listed compound: inhibition at 10 µM.
1. CCOC(=O)C1=C(C)NC(=S)NC1c1ccc(NC(=S)Nc2c(F)cccc2Cl)cc1 (centres undefined)
2. CCOC(=O)C1=C(C)NC(=S)NC1c1ccc(NC(=S)Nc2c(Cl)cccc2C(F)(F)F)cc1 (centres undefined)
3. CCOC(=O)C1=C(C)NC(=S)NC1c1ccc(NC(=S)Nc2ccccc2Cl)cc1 (centres undefined)
4. CCOC(=O)C1=C(C)NC(=S)NC1c1ccc(NC(=S)Nc2ccccc2F)cc1 (centres undefined)

**A:**
1: 56%; 2: 62%; 3: 36%; 4: 22%

###

test system: THP-1; assay: Anti-inflammatory activity in Homo sapiens (human) THP1 cells assessed as inhibition of LPS-induced IL-6 production preincubated at 10 uM for 30 min before LPS treatment measured after 24 hr by ELISA; type: functional
Kindly supply the reported inhibition at 10 µM values for the records listed here.
Answers are plain numbers, in %.

| Molecule | inhibition at 10 µM, % |
| --- | --- |
| CCOC(=O)C1=C(C)NC(=S)NC1c1ccc(NC(=S)Nc2ccc(C)c(C)c2)cc1 (centres undefined) | 8 |
| CCOC(=O)C1=C(C)NC(=S)NC1c1ccc(NC(=S)Nc2c(C)cccc2F)cc1 (centres undefined) | 16 |
| CCOC(=O)C1=C(C)NC(=S)NC1c1ccc(NC(=S)Nc2cc(C(F)(F)F)ccc2Cl)cc1 (centres undefined) | 96 |
| CCOC(=O)C1=C(C)NC(=S)NC1c1ccc(NC(=S)Nc2ccc(OC)cc2)cc1 (centres undefined) | 48 |
| CCOC(=O)C1=C(C)NC(=S)NC1c1ccc(NC(=S)Nc2cc(F)cc(F)c2)cc1 (centres undefined) | 82 |
| CCOC(=O)C1=C(C)NC(=S)NC1c1ccc(NC(=S)Nc2ccc(F)c(C)c2)cc1 (centres undefined) | 27 |
| CCOC(=O)C1=C(C)NC(=S)NC1c1ccc(NC(=S)Nc2cccc(C(F)(F)F)c2)cc1 (centres undefined) | 16 |
| CCOC(=O)C1=C(C)NC(=S)NC1c1ccc(NC(=S)Nc2ccccc2C(F)(F)F)cc1 (centres undefined) | 18 |
| CCOC(=O)C1=C(C)NC(=S)NC1c1ccc(NC(=S)Nc2ccccc2OC(F)(F)F)cc1 (centres undefined) | 54 |
| CCOC(=O)C1=C(C)NC(=S)NC1c1ccc(NC(=S)Nc2ccc(C(C)C)cc2)cc1 (centres undefined) | 90 |

Value sought for every listed molecule: inhibition at 10 µM.
1. CCOC(=O)C1=C(C)NC(=S)NC1c1ccc(N)cc1 (centres undefined)
2. CCOC(=O)C1=C(C)NC(=S)NC1c1ccc(NC(=O)Nc2ccccc2Oc2ccccc2)cc1 (centres undefined)
3. CCCCc1ccc(NC(=S)Nc2ccc(C3NC(=S)NC(C)=C3C(=O)OCC)cc2)cc1 (centres undefined)

**A:**
3
42
8

Value sought for every listed molecule: inhibition at 10 µM.
1. CCOC(=O)C1=C(C)NC(=S)NC1c1ccc(NC(=S)Nc2c(F)cccc2C(F)(F)F)cc1 (centres undefined)
2. CCOC(=O)C1=C(C)NC(=S)NC1c1ccc(NC(=S)Nc2ccc(F)c(Cl)c2)cc1 (centres undefined)
3. CCOC(=O)C1=C(C)NC(=S)NC1c1ccc(NC(=S)Nc2c(C)cccc2Cl)cc1 (centres undefined)
4. CCOC(=O)C1=C(C)NC(=S)NC1c1ccc([N+](=O)[O-])cc1 (centres undefined)
5. CCOC(=O)C1=C(C)NC(=S)NC1c1ccc(NC(=S)Nc2ccc(C(F)(F)F)cc2Cl)cc1 (centres undefined)
6. CCOC(=O)C1=C(C)NC(=S)NC1c1ccc(NC(=S)Nc2ccc(C(F)(F)F)cc2)cc1 (centres undefined)

**A:**
30
58
55
3
68
48
